Assay Method Text: NCI Yeast Anticancer Drug Screen. Data for the mlh1 rad18 strain (AID 175)
Experimental Parameters: S. cerevisiae mlh1 rad18 strain growth inhibition; at 50.0 µM (retest, dose inferred, filed as 5.0)
This is part of a sample that, as a whole, favours compounds with a hit. Of some 79,000 tested, about 15% had one in any assay. Active and inactive are the calls of the source. Cut-off read from the data, not from the text of the source: active = growth inhibition above about 70%; inactive = the rest.
The reply should name one outcome from YES for active, NO for inactive

The examples below pair each entry with its known result.
CC1=CCCC2C1(C)CCC(C)C2(C)Cc1cc(O)ccc1O (stereo not drawn); YES
CC1(C)C(C=O)=CCC1CC(N)=O (stereo not drawn); YES

Q) Test call, this molecule: Cc1nc2c(ncn2CCO)c(=O)[nH]1
A) YES

Q) Test call, this molecule: CCNc1ccc2c(c1)C(=O)N(OS(C)(=O)=O)C2=O
A) NO

Q) Test call, this molecule: Cn1ncc2cc3c(Nc4ccc(Cl)cc4)cccc3nc21
A) NO

Q) Test call, this molecule: COc1ccc(S(=O)(=O)N/N=C\c2cc([N+](=O)[O-])cc(I)c2O)c(OC)c1OC
A) YES

Q) Test call, this molecule: N#C/C(=C/c1c(Cl)cccc1Cl)C(N)=O
A) YES

Q) Test call, this molecule: COc1ccc(N=Nc2ccc3oc(=O)c(C(=O)Nc4ccccc4)cc3c2)cc1
A) YES

Q) Test call, this molecule: CC(C)(O)c1ccccc1C(c1ccccc1)c1ccccc1
A) YES

Q) Test call, this molecule: COc1cc(/C=C/c2sc3ccccc3[n+]2C)ccc1N(C)C
A) NO

Q) Test call, this molecule: COC(=O)c1n[nH]c(C)c1N=NN(C)CCC#N
A) YES

Q) Test call, this molecule: O=C(/C=N/O)Nc1cc(Cl)c(Cl)cc1Cl
A) YES

Q) Test call, this molecule: COc1ccc(SCc2cc(OC)ccc2OC)cc1
A) NO

Q) Test call, this molecule: CC(C)c1[nH]nc(C(N)=O)c1N=NN(C)C
A) NO

Q) Test call, this molecule: Clc1nc(C(Cl)Cl)nc2sc3c(c12)CCCC3
A) YES

Q) Test call, this molecule: N#CC(=C1C=CC(=NO)C=C1)c1ccccc1
A) YES

Q) Test call, this molecule: CCC(NC(C)c1ccccc1)C(=O)c1ccc(OCc2ccccc2)c(OCc2ccccc2)c1 (stereo not drawn)
A) YES

###

Assay Method Text: NCI Yeast Anticancer Drug Screen. Data for the CLN2oe strain (AID 163);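 note: 0% = growth of vehicle-only control cultures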
Experimental Parameters: S. cerevisiae CLN2oe strain, at 3.7 µM, stronger effect = higher value
This is part of a sample that, as a whole, favours compounds with a hit. Of some 79,000 tested, about 15% had one in any assay. The source made the active and inactive calls. Rule as the data show it: active = growth inhibition above about 70%; inactive = the rest.
Listing of entries alongside the reported growth inhibition.

CN(C)Cc1cccc(CN(C)C)[c]1[Sn]([Br])([c]1ccccc1)[c]1ccccc1; 1% (inactive)
CC(C)(C)[OH+][O-].[O-]c1ccc(Cl)cc1C=Nc1ccc(Cl)cc1[O-].[O]=[V]; -3% (inactive)
COc1ccc(C(C#N)=C2C=CC(=NO)C=C2)cc1; 11% (inactive)

Q) State its growth inhibition for this molecule: CN=C(N)N/N=C(\C)c1ccc2oc3ccc(/C(C)=N/NC(N)=NC)cc3c2c1
A) -74% (inactive)

Q) State its growth inhibition for this molecule: CCCCCCCCCCCCCCCCNC(=O)/C(=C\c1ccc(Cl)c(Cl)c1)NC(=O)c1ccccc1
A) -7% (inactive)
